ASSAY_NOTES: pKb of amine compounds / pKa of weakly acidic compounds calculated from pH of aqueous solution
CONDITION_DETAILS: amine compound, aqueous solution at 30° C., calculated from pH of 0.4 M aqueous solution
METRIC_NAME: pKb

[
  {
    "COMPOUND": "CC(C)NCCO",
    "pKb": 4.1
  },
  {
    "COMPOUND": "C1CNCCN1",
    "pKb": 4.8
  },
  {
    "COMPOUND": "NC(CO)CO [Example 2A13PD, 2-amino-1,3-propanediol]",
    "pKb": 5.6
  },
  {
    "COMPOUND": "CCNCCO",
    "pKb": 4.4
  }
]
